These measurements were taken from PubChem BioAssay AID1963971.

- Tested on: 953936-095-R-J2-PDC spheroids with HUVEC/MSC, viability;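 note: spheroids exposed to compounds for seven days before read-out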
- ASSAY TEXT: Anticancer human tumor 953936-095-R-J2-PDC patient-derived cervical squamous cell carcinoma cell line growth inhibition [PI3K]
- CONDITIONS: second compound 0.316 µM; first compound 0.949 µM; stronger effect = lower value
MEASUREMENT LABEL: viability, T/C (%)
Write down the numeric answer in % and omit the unit.

Query block: Consider the compound Cn1cnc2c(F)c(Nc3ccc(Br)cc3Cl)c(C(=O)NOCCO)cc21 + CC(Nc1ccc2c(c1)OCCn1cc(N3C(=O)OCC3C(F)F)nc1-2)C(N)=O and give its measured viability, T/C.
Result block: 6.22

Query block: Another: Cn1cnc2c(F)c(Nc3ccc(Br)cc3Cl)c(C(=O)NOCCO)cc21 + Cc1nc(NC(=O)N2CCCC2C(N)=O)sc1-c1ccnc(C(C)(C)C(F)(F)F)c1
Result block: 26.1

Query block: Further, for Cn1cnc2c(F)c(Nc3ccc(Br)cc3Cl)c(C(=O)NOCCO)cc21 + CC(Nc1ncnc2nc[nH]c12)c1cc2cccc(Cl)c2c(=O)n1-c1ccccc1 ?
Result block: 53.1

Query block: Also check Cn1cnc2c(F)c(Nc3ccc(Br)cc3Cl)c(C(=O)NOCCO)cc21 + COc1c(OCCCN2CCOCC2)ccc2c3n(c(=NC(=O)c4cnc(N)nc4)nc12)CCN3
Result block: 0.15
